endpoint-label: melting point

Report melting point for CC(C)(CCC#N)c1ccc(C(=O)Nc2cn3cc(C(F)(F)F)ccc3n2)cc1 [Example 445] please.
233 to 234 °C

What value of measured melting point is listed for CC(C)(C)c1ccc(C(=O)Nc2cn3cc(-c4ccoc4)ccc3n2)cc1 [Example 61] ?
258 to 259 °C

For the molecule shown here, Cc1cccc2nc(NC(=O)c3ccc(C(C)(C)CCC(=O)O)cc3)cn12 [Example 187] , give the reported melting point.
260 °C

For the molecule shown here, CC(C)(C)c1ccc(C(=O)Nc2cn3nc(-n4cnc(Br)c4)ccc3n2)cc1 [Example 147] , give the reported melting point.
306 to 307 °C

Form field: reported melting point of CNCCNc1ccc2nc(NC(=O)c3ccc(C(C)(C)C)cc3)cn2n1 [Example 172]
200 to 201 °C
